Kindly state GI50 for each of the entries shown.
Test system: OVCAR-5 ovarian
Test: NCI tumour cell line growth inhibition, 48 h

GI50 recorded for this compound, C[C@H]1CN(C2COC2)CCN1c1ccc(Nc2cc(-c3ccnc(N4CCn5c(cc6c5CC(C)(C)C6)C4=O)c3CO)cn(C)c2=O)nc1 , is 73 µM

GI50 for C=CCN(CC=C)C(=O)[C@H](CC)[C@@H]1CC[C@@H](C)[C@@H]([C@H](C)[C@@H](O)[C@@H](C)C(=O)[C@H](CC)C2O[C@]3(C=C[C@@H](O)[C@]4(CC[C@@](C)([C@H]5CC[C@](O)(CC)[C@H](C)O5)O4)O3)[C@H](C)C[C@@H]2C)O1 (some centres undefined) is 2.25 µM

Noted for O=C1/C(=C/c2ccccc2O)N=C(c2ccccc2)N1c1cc(C(F)(F)F)ccc1Cl : its GI50 reads > 100 µM

Measured GI50, O=c1[nH]c2ccccc2n1C1CCN(CCCC(c2ccc(F)cc2)c2ccc(F)cc2)CC1 : 1.74 µM

Value of measured GI50 for the entry C=CC(=O)N[C@@H](/C=C/C(=O)OCC)Cc1ccc(-c2cc(Cl)cc(Cl)c2)cc1 : 21.6 µM

GI50 measured on O=S(=O)(O)c1ccc2cc3nn(-c4ccc(/C=C/c5ccc(-n6nc7cc8ccc(S(=O)(=O)O)cc8cc7n6)cc5S(=O)(=O)O)c(S(=O)(=O)O)c4)nc3cc2c1 = 62.5 µM

Documented GI50 of CC(=O)N(O)c1ccc(/C=C/c2ccccc2)cc1 : 2.35 µM

// sample COCCOCCOCCOCCOC(=O)OC[n+]1ccc(NC(=NCCCCCCOc2ccc(Cl)cc2)NC#N)cc1 , its GI50 was 3.98 µM

For this compound ( CC1CCN(CCOc2ccc(CNc3ccc4nc(CCC5CCCCC5)[nH]c4c3)cc2)CC1 ), measured GI50 is 1.76 µM

GI50 recorded for this compound, N#Cc1c(NC(=O)c2ccccc2F)sc2c1CCCC2 , is > 25 µM

Input O=C(c1cc(Cc2n[nH]c(=O)c3ccccc23)ccc1F)N1CCN(C(=O)C2CC2)CC1 . Output GI50: > 100 µM

The compound N#CC1C(N)=NNC12Nc1ccccc1S2 (centres undefined) showed GI50 equal to 31.5 µM

The value of GI50 measured for the compound COc1ccc(C2CC(c3ccc(N(C)C)cc3)=NN2c2ccc(S(N)(=O)=O)cc2)cc1 (centres undefined) turned out to be 6.57 µM

Per the records, this compound ( Nc1nc2ccccc2c2c1S(=O)(=O)c1ccc(Cl)cc1C2=O ) has GI50 equal to 1.42 µM

Lookup result for COc1cc(-c2ncn(/C=C\c3nnco3)n2)cc(C(F)(F)F)c1 ; measured GI50: 1.78 µM

# compound CCN(Cc1ccc(F)cc1)c1ccc(CO)c(C(F)(F)F)c1 ; its GI50 = 1.28 µM

Consider O=C1C(Nc2cccc(O)c2)=C(Sc2ccccc2)C(=O)N1Cc1ccccc1 . Its measured GI50 is 18.2 µM

Sample CC1SC(c2ccc(Cl)cc2)N(CCc2cccs2)C1=O (centres undefined) ; GI50 observed: 1.85 µM

Kindly note the recorded GI50 for COc1ccc(COc2cc3oc(=O)c4cc(C(C)O)ccc4c3cc2OC)cc1 (centres undefined) , which is 41.5 µM

---

What TGI was measured for each of the following?
Tested on: SF-295 CNS
Assay: NCI tumour cell line growth inhibition, 48 h

So the reported TGI for Oc1cccnc1/C=N/OCc1ccccc1 , on SF-295 CNS, turned out to be > 100 µM

Short answer on SF-295 CNS for Cc1cc(O)c2c3c(ccc2c1)C(=O)c1c(O)cccc1C3=O , TGI: > 100 µM

Measured TGI for this entry CN(C)CC(/C(Cc1ccccc1)=N\NC(=S)NN)c1ccccc1 (stereo unspecified) on SF-295 CNS: > 100 µM

Assay SF-295 CNS, sample N#Cc1c(-c2ccccc2)cc(-c2ccccc2)n(C2OCC(O)C(O)C2O)c1=S (stereo unspecified) , TGI read: 39 µM

Hey, SF-295 CNS data for CCC(C)N1CN(c2ccccc2)C2(CCN(CCCSc3ccc(F)cc3)CC2)C1=O (stereo unspecified) : TGI came out at 5.57 µM

Item CCOP(=O)(OCC)C(Cc1ccc(Cl)cc1)NS(=O)(=O)c1ccc(C)cc1 (stereo unspecified) was tested on SF-295 CNS; the reported TGI is > 100 µM

Entry O=C(Nc1nc2ncn(CCO)c2c(=O)[nH]1)c1ccccc1 under SF-295 CNS had TGI of > 100 µM

Record c1cncc(CSc2ncnc3nc[nH]c23)c1 ; system SF-295 CNS; TGI = > 100 µM

The measured TGI that Nc1ccc(-c2nc3ccc(F)cc3s2)cc1I showed for SF-295 CNS is > 100 µM

Record for c1ccc(COC2C3COC(O3)C(OCc3ccccc3)C2OCc2ccccc2)cc1 (stereo unspecified) under target or system SF-295 CNS: TGI reported as > 100 µM

Record CS(=O)(=O)C1(Br)S(=O)(=O)OCCOS1(=O)=O ; system SF-295 CNS; TGI = > 100 µM

---

Tested on: COLO 205 colon
Experiment: NCI tumour cell line growth inhibition, 48 h
Consider the following molecules; for each one, report its TGI.
Provide the reading as a plain figure in µM.

In plain terms, COCCOCCOCCOCCOC(=O)OC[n+]1ccc(NC(=NCCCCCCOc2ccc(Cl)cc2)NC#N)cc1 has a documented TGI of 15.5

GET /value?item= C=CC[N+]1(CC)CCN=C1CCCCCCCCCCCCCCCCC (stereo not drawn) &field=TGI returns 2.29

molecule COC1=C(OC)[C@]2(OC)c3c(O)c(OC)c4c(c3O[C@@]23O[C@@H](c2ccccc2)CC=C3C1=O)[C@@H](OC)C[C@H](c1ccccc1)O4 , TGI observed: 1.44

Lab note: COCCOCOC(C)(C)[C@H](CCO)O[Si](c1ccccc1)(c1ccccc1)C(C)(C)C gave TGI of 33.9

Value of measured TGI for the entry CC(C)N(Cc1ccc(F)cc1)c1ccc(CO)c(Cl)c1 : 7.17

The molecule listed as COc1ccc(NC(=O)C(=O)Cc2nc3ccc(C(=O)c4ccccc4)cc3[nH]c2=O)c([N+](=O)[O-])c1 shows TGI equal to 40

Note to self: TGI recorded for O=C1/C(=C/c2ccccc2[N+](=O)[O-])COc2ccc(O)cc21 was 2.89

For record N#Cc1c(-c2ccccc2)cc(-c2ccccc2)n(C2OCC(O)C(O)C2O)c1=S (stereo not drawn) the listed TGI is 56.9

// c1ccc(C2CCCCC2)c(OCCCCCN2CCNCC2)c1 : TGI value = 3.31

Form field TGI, entry C=CC(=O)N[C@@H](/C=C/C(=O)OCC)Cc1ccc(-c2cc(Cl)cc(Cl)c2)cc1 : 53.9

Summary for this molecule, COc1cc(C(=O)/C=C/c2c(C(F)(F)F)nc3ccccn23)cc(OC)c1OC : TGI is 4.36

Kindly note the recorded TGI for O=c1ccc2ccccc2c2ccccc12 , which is 18.3

Given item CNC(=O)N1N[C@H](c2ccccc2)[C@@H]1c1ccccc1 , the value recorded as its TGI is 38.8

For reference, reported TGI for C=C1C=CC2(Br)OC3CC(C)(Cl)C(Br)CC13C2(C)C (stereo not drawn) stands at 30.9

// sample Cn1nc(-c2ccccc2)c(C(=O)/C=C/c2ccc(Cl)cc2)c(N2CCOCC2)c1=O , its TGI was 3.79

Please fill in: TGI reported for O=C1c2ccccc2C(=O)c2c1cc1c(c2[N+](=O)[O-])OCO1 = 16.8

// recorded TGI for N#Cc1cc2c(cc1Cl)Sc1nnc(Nc3cccc4ccccc34)n1S2(=O)=O : 4.52

So for CC1CCC2C(CN(CC3=C(C(F)(F)F)OC4OC5(C)CCC6C(C)CCC3C46OO5)CC3=C(C(F)(F)F)OC4OC5(C)CCC6C(C)CCC3C46OO5)=C(C(F)(F)F)OC3OC4(C)CCC1C32OO4 (stereo not drawn) , the logged TGI turned out to be 28.6

# molecule C=CCN(CC=C)C(=O)[C@H](CC)[C@@H]1CC[C@@H](C)[C@@H]([C@H](C)[C@@H](O)[C@@H](C)C(=O)[C@H](CC)C2O[C@]3(C=C[C@@H](O)[C@]4(CC[C@@](C)([C@H]5CC[C@](O)(CC)[C@H](C)O5)O4)O3)[C@H](C)C[C@@H]2C)O1 (stereo partly drawn) ; its TGI = 6.23

---

Test system: UO-31 renal
Test: NCI tumour cell line growth inhibition, 48 h
Kindly supply the reported GI50 values for the records listed here.

The compound identified as COc1cc(/C=C/C(=O)O[C@H]2[C@H](O[C@@H]3O[C@@H](C)[C@H](O)[C@@H](O)[C@H]3O)[C@@H](O)[C@H](OCCc3ccc(O)c(O)c3)O[C@@H]2COC2OCC(O)(CO)C2O)ccc1O (stereo partly drawn) registered its GI50 at > 100 µM

For CN(C)CCCn1c2c(c3cc4c(cc3c1=O)OCO4)C(=O)c1ccccc1-2 the compound record lists GI50 as 4.19 µM

Note to self: GI50 recorded for N#Cc1c(NC(=O)c2ccccc2F)sc2c1CCCC2 was > 25 µM

Note to self: GI50 recorded for C[C@H]1CN(C2COC2)CCN1c1ccc(Nc2cc(-c3ccnc(N4CCn5c(cc6c5CC(C)(C)C6)C4=O)c3CO)cn(C)c2=O)nc1 was 21.7 µM

Entry O=C1/C(=C/c2ccccc2[N+](=O)[O-])COc2ccc(O)cc21 , GI50 reported as 1.02 µM

Reported GI50 for CCn1ccnc1C(=O)/C=C/c1ccc(CC(=O)Nc2ccc(F)cc2)cc1 was 2.65 µM

Lab note: measured GI50 of COCCOCCOCCOCCOC(=O)OC[n+]1ccc(NC(=NCCCCCCOc2ccc(Cl)cc2)NC#N)cc1 was 11.3 µM

// GI50 lookup, compound = COc1ccc(COc2cc3oc(=O)c4cc(C(C)O)ccc4c3cc2OC)cc1 (stereo not drawn) , result: 14.7 µM

These measurements were taken from PubChem BioAssay (NCI).
